# System: BT-549 breast
# protocol description: NCI-60 one-dose screen, 48 h (100 = growth as untreated, 0 = no growth, -100 = all killed)
# condition description: 10 µM unless noted
Compounds without any hit were thinned out: in the full panel of roughly 83,000, 20% have a hit.
Respond with true (1) for growth values of 50% and above, false (0) for values below.

Please check the record O=[N+]([O-])c1c(O)c(Cl)cc(Cl)c1Cl and state if its growth is at or above 50%.
true (1)

Please check the record COc1ccc(-c2nc3ccc(C)cc3c3c2c(=O)n(C)c(=O)n3C)cc1OC and state if its growth is at or above 50%.
true (1)

Please check the record COc1ccc2c(c1)CC[C@@H]1[C@@H]2CC[C@]2(C)c3c(cc(C#N)c4c3sc3ccccc34)C[C@@H]12 and state if its growth is at or above 50%.
true (1)

Please check the record CS(=O)(=O)Nc1cc(-c2ccc3ncnc(Nc4ccc(OCc5ccccn5)c(Cl)c4)c3c2)cnc1Cl and state if its growth is at or above 50%.
false (0)

Please check the record N#CSc1c[nH]c2ccc(/C=C/C(=O)/C=C(O)/C=C/c3ccc4[nH]cc(SC#N)c4c3)cc12 and state if its growth is at or above 50%.
false (0)

Please check the record O=C1CCCC1[n+]1ccccc1 (stereo unspecified) and state if its growth is at or above 50%.
true (1)

Please check the record COc1ccc(Oc2ccc(/C=C/C(=O)c3ccc(OC)c(OC)c3)cc2)cc1 and state if its growth is at or above 50%.
true (1)

Please check the record OC1CSSC1Cn1cnc2c(Nc3ccc(OCc4cccc(F)c4)c(Cl)c3)ncnc21 (stereo unspecified) and state if its growth is at or above 50%.
true (1)

Please check the record Cn1cc(-c2csc(-c3cn(C)c4ccccc34)n2)c2cnccc21 and state if its growth is at or above 50%.
true (1)

Please check the record CCCOC(=O)Nc1nc2ccc(SCC)cc2s1 and state if its growth is at or above 50%.
true (1)

Please check the record Cc1nc2ccccc2c(/C=C/c2ccc(F)cc2)c1C(=O)/C=C/c1ccccc1 and state if its growth is at or above 50%.
false (0)

###

# Tested on: EKVX NSCLC
# protocol description: NCI-60 one-dose screen, 48 h (100 = growth as untreated, 0 = no growth, -100 = all killed)
# condition description: 10 µM unless noted
Compounds without any hit were thinned out: in the full panel of roughly 83,000, 20% have a hit.
endpoint name: growth (%)
Write the value in % as a bare number.

The compound identified as O=C(CN1C(=O)S/C(=C\C(Cl)=C\c2ccccc2)C1=O)NC1CCS(=O)(=O)C1 (centres undefined) registered its growth at 82.4

The compound identified as COc1ccc(/C=C2\c3cc(OC)c(OC)c(OC)c3CC[C@@H]2O)cc1F registered its growth at 44.1

The compound identified as COc1ccc(-c2cc(C(=O)N3N=C(c4ccc(N)cc4)CC3c3ccc(Cl)cc3)c3cc(OC)ccc3n2)cc1 (centres undefined) registered its growth at 88.1

The compound identified as O=C1NC(=O)C(c2coc3cc(Br)ccc23)=C1c1c[nH]c2ccccc12 registered its growth at 54

The compound identified as N=C(N)c1ccc(-c2ccc(-c3cc(Cl)cc(Cl)c3)s2)s1 registered its growth at -12.2

The compound identified as O=C(/C=C/C12c3ccccc3C(c3ccccc31)C1C(=O)NC(=O)C12)c1ccc(Cl)cc1Cl (centres undefined) registered its growth at 36.4

The compound identified as C/C(=N\Nc1ccccc1)c1ccc(NC2=CC(=O)c3ccccc3C2=O)cc1 registered its growth at 74

The compound identified as CN(C)c1ccc([C@@H](C(=O)Nc2cccc([N+](=O)[O-])c2)N(C(=O)c2cc3ccccc3[nH]2)c2cccc([N+](=O)[O-])c2)cc1 registered its growth at 90.7

The compound identified as FC(F)(F)c1[nH]ncc1-c1nc2ccc3[nH]ncc3c2c2c1CCCC2 registered its growth at 3.77
